# subject-of-test: B-RAF G466V (Homo sapiens, UniProt P15056, G466V)
# Construct: expressed in transfected cells; host or cells: T-Rex 293 cells (Invitrogen #R71007)
# Sequence (P15056 whole entry G466V): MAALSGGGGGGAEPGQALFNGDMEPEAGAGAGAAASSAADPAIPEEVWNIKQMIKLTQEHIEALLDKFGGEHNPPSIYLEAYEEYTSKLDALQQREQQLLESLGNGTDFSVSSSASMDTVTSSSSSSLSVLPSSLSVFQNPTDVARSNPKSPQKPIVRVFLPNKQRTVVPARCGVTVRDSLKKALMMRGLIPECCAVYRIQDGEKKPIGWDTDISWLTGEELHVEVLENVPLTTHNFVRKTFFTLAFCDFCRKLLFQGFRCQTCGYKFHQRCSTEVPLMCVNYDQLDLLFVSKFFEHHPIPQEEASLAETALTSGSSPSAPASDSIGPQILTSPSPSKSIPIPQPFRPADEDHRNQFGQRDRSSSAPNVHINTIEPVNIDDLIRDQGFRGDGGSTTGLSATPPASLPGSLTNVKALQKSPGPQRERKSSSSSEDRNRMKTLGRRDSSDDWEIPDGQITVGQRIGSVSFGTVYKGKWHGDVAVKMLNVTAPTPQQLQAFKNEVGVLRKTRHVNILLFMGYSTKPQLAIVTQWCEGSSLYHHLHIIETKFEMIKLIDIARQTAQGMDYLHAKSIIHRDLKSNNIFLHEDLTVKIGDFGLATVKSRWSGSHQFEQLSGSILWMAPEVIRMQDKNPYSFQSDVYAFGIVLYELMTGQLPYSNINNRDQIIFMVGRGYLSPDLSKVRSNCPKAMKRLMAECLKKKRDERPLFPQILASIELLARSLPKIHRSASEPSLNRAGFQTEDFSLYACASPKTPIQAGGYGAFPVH
# assay-comment: Target protein degradation, assay D: T-Rex 293 cells, HA-BRAF_G466V, 384 well format
# Format: cell-based
# condition-set: T-REx-293, Assay D, T-Rex 293 HA-BRAF_G466V cells, 24 hours, Examples 83-269
Reported Dmax values are given for each entry in this list.

molecule | Dmax
N#Cc1c(NS(=O)(=O)N2CC[C@@H](F)C2)ccc(F)c1Oc1ccc2ncn(-c3ccc(N4CCC(CN5CC6(C5)CN(c5ccc7c(c5)CN(C5CCC(=O)NC5=O)C7=O)C6)CC4)cc3)c(=O)c2c1 (some centres unmarked) | 35 to 70%
COc1cc(N2CC(CN3CCN(c4ccc(-n5cnc6ccc(Oc7c(F)ccc(NS(=O)(=O)N8CC[C@@H](F)C8)c7C#N)cc6c5=O)cc4)CC3)C2)cc2c1C(=O)N([C@H]1CCC(=O)NC1=O)C2 | ≥ 70%
CN(c1ccc2c(c1)CN([C@H]1CCC(=O)NC1=O)C2=O)C1CCC2(CC1)CCN(CC1CCN(c3ccc(-n4cnc5ccc(Oc6c(F)ccc(NS(=O)(=O)N7CC[C@@H](F)C7)c6C#N)cc5c4=O)cc3)CC1)CC2 | 35 to 70%
CC(C)(C1CCN(c2ncc(-n3cnc4ccc(Oc5c(F)ccc(NS(=O)(=O)N6CC[C@@H](F)C6)c5C#N)cc4c3=O)cn2)CC1)N1CCN(c2ccc3c(c2)C(=O)N(C2CCC(=O)NC2=O)C3=O)CC1 (some centres unmarked) | ≤ 35%
N#Cc1c(NS(=O)(=O)N2CC[C@@H](F)C2)ccc(F)c1Oc1ccc2ncn(-c3ccc(N4CC(CN5CC(c6ccc7c(c6)CN([C@H]6CCC(=O)NC6=O)C7=O)C5)C4)cc3)c(=O)c2c1 | ≤ 35%
